Hey, just so you know, these numbers are from ChEMBL document CHEMBL1141827.

- Tested on: Mus musculus
- method_notes: Antiinflammatory activity against Swiss mouse assessed as inhibition of arachidonic acid-induced edema at 0.5 mg/ear applied 30 mins before arachidonic acid challenge measured after 1 hr
- Assay type: functional
measured_attribute: inhibition (INH) (%)
Your answer should be a plain number; it is taken to be in %.

Example entries begin here.
molecule="CC/C=C\\C/C=C\\C/C=C\\CCCCCCCC(=O)OC(COC(=O)CCCCCCCCCCCCCCC)CO[C@H]1O[C@@H](CO[C@H]2O[C@H](CO)[C@H](O)[C@H](O)[C@H]2O)[C@@H](O)[C@@H](O)[C@@H]1O (some centres not stated)" measured_attribute="inhibition (INH)" measured_number=5
molecule="C=C1C(=O)O[C@H]2CC(=C)[C@H]3CC[C@@](C)(O)[C@@H]3C[C@H]12 [INUVISCOLIDE]" measured_attribute="inhibition (INH)" measured_number=-16
molecule=COc1cc(O)c2c(c1)O[C@H](c1ccc(O)cc1)[C@@H](O)C2=O measured_attribute="inhibition (INH)" measured_number=3
molecule=COc1cc(O)c2c(c1)O[C@H](c1ccc(O)c(O)c1)[C@@H](OC(C)=O)C2=O measured_attribute="inhibition (INH)" measured_number=-1
molecule=COc1cc(O)c2c(=O)c(O)c(-c3ccc(O)cc3)oc2c1 measured_attribute="inhibition (INH)" measured_number=6
molecule=O=C1CCN(c2ccccc2)N1 measured_attribute="inhibition (INH)" measured_number=51

Please find the next molecule below.
Request: // returns reported inhibition (INH) for input `C=C(C(=O)O)[C@@H]1CC[C@@]2(C)CCC[C@@](C)(O)[C@@H]2C1`
Result: 18
